test_target: S. agalactiae γ-GCS-GS (Streptococcus agalactiae serotype V, UniProt Q8DXM9)
Sequence (Q8DXM9 1-750): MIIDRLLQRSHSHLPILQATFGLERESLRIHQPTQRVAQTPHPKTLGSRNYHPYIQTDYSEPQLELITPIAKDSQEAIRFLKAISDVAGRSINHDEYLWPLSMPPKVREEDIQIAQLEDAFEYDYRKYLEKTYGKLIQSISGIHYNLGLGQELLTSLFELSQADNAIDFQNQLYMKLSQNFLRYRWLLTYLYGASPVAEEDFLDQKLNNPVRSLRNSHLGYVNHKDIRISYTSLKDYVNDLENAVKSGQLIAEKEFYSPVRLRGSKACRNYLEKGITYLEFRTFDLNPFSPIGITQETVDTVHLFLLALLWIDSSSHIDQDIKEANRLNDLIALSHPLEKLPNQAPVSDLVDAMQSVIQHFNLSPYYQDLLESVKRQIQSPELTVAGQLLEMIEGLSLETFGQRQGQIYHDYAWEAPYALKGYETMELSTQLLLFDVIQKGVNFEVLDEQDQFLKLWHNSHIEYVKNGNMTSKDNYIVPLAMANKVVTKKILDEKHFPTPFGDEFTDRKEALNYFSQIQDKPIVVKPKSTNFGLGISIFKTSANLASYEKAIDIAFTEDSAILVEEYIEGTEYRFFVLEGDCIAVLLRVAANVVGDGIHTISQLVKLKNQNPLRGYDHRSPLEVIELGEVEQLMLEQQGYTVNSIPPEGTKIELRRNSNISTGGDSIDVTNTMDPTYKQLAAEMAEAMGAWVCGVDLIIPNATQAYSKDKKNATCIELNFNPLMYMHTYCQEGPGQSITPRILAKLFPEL
value_type: Kd (µM)
Give a bare numeral; the unit µM is implied.

What is its Kd for S. agalactiae γ-GCS-GS (Streptococcus agalactiae serotype V, UniProt Q8DXM9)? Entry: CCCC[S@](=N)(=O)CC[C@H](N)C(=O)O [L-S—BSO, L-buthionine-S-sulfoximine, reference compound]
2800
